tested on: HT29 colon; test: NCI-60 one-dose screen, 48 h (100 = growth as untreated, 0 = no growth, -100 = all killed); conditions: 10 µM
The panel holds about 83,000 compounds, 20% with a hit somewhere; the sample as a whole holds those more often.
Class condition met: growth at least 80%. Class condition not met: growth below 80%.

Does the reported growth for "Cc1ccc(/C=C2\CN(Cc3cn(CCNc4ccnc5cc(Cl)ccc45)nn3)C/C(=C\c3ccc(C)cc3)C2=O)cc1" fall at or above the 80% mark? condition not met

Does the reported growth for "CCCCCCCC/C=C/CCCCCCCCC1=NCCN1CCO" fall at or above the 80% mark? condition not met

###

system: TK-10 renal; assay: NCI-60 one-dose screen, 48 h; conditions: 10 µM
About 83,000 compounds went through this panel and 20% of them were active in at least one assay; those are over-represented in the sample as a whole. Activity calls are given as the source filed them. How the source made its calls: active means growth percent below 10; inactive means the rest.
Respond only with the outcome that fits, drawn from yes (1) for active, no (0) for inactive

Solved cases below.
{"columns": ["structure.smiles", "answer.label"],
 "data": [
  ["COc1ccc2nc(NC(=O)Nc3c(F)cccc3F)sc2c1", "no (0)"],
  ["Cc1ccc(-n2c(-c3cc4c([nH]c5ccccc54)c(-c4cccc(O)c4)n3)n[nH]c2=S)cc1", "no (0)"],
  ["COc1cc(-c2cc(-c3cc(OC)c(OC)c(OC)c3)nc3nc(N)[nH]c(=O)c23)ccc1Oc1ccnc2cc(Cl)ccc12", "no (0)"],
  ["Nc1nsc(C(=O)c2ccc(O)cc2)n1", "no (0)"]
]}

Recorded test outcome, item "O=C1/C(=C/c2ccc([N+](=O)[O-])s2)Oc2ccc(Cl)cc21" yes (1)

###

system: UACC-257 melanoma; assay: NCI-60 one-dose screen, 48 h (100 = growth as untreated, 0 = no growth, -100 = all killed); conditions: 10 µM
The panel holds about 83,000 compounds, 20% with a hit somewhere; the sample as a whole holds those more often.
Recorded measurements of growth, one per entry
Field format: number, assumed %, no unit text.

Consider the reported growth for these molecules:
{"columns": ["molecule", "measurement.target", "unit.string", "result"],
 "data": [
  ["CCOc1ccc(-n2cc(-c3ccc(N(C)C)cc3)[n+]3c2CCCCC3)cc1", "UACC-257 melanoma", "%", -12.6],
  ["CN(C)c1ccc2cc(-c3cc4c(oc3=O)-c3ccccc3OC4O)c(=O)oc2c1 (stereo not given)", "UACC-257 melanoma", "%", 42.9],
  ["CC1(C)CCc2cc(-c3ccn(S(=O)(=O)c4ccc(Cl)cc4)n3)ccc2O1", "UACC-257 melanoma", "%", 64.9]
]}

For UACC-257 melanoma, give growth of the listed molecule: "Cn1cnc([N+](=O)[O-])c1/C=C1\Oc2ccc(Cl)cc2C1=O" 84.9

For UACC-257 melanoma, give growth of the listed molecule: "COc1cc(/C=C2\C(=O)Nc3cc(C)c(O)cc32)cc(OC)c1OC" -11.1

For UACC-257 melanoma, give growth of the listed molecule: "CCN(CC)CCCOC(=O)Nc1ccccc1Cl" 111

For UACC-257 melanoma, give growth of the listed molecule: "O=S(=O)(NCl)c1ccccc1" 103

For UACC-257 melanoma, give growth of the listed molecule: "CC(=O)OCC(COC(C)=O)(COC(C)=O)COC(C)=O" 103

For UACC-257 melanoma, give growth of the listed molecule: "FC(F)(F)c1ccc(-c2ncc(-c3ccc(C(F)(F)F)cc3)c(NCc3cc(C(F)(F)F)cc(C(F)(F)F)c3)n2)cc1" 87.9

For UACC-257 melanoma, give growth of the listed molecule: CC(=O)Oc1c(C)c(C)c2c(c1C)CCC(C)(CC(=O)OCCCCCCCCCCC[P+](c1ccccc1)(c1ccccc1)c1ccccc1)O2 (stereo not given) -80.5

Ref: PubChem BioAssay (NCI)
